target: recombinant MAVS protein (Homo sapiens, UniProt Q7Z434); test: Binding of fluorescence-labeled peptides to plate-coated recombinant MAVS protein
Sequence (Q7Z434 whole entry, species assumed): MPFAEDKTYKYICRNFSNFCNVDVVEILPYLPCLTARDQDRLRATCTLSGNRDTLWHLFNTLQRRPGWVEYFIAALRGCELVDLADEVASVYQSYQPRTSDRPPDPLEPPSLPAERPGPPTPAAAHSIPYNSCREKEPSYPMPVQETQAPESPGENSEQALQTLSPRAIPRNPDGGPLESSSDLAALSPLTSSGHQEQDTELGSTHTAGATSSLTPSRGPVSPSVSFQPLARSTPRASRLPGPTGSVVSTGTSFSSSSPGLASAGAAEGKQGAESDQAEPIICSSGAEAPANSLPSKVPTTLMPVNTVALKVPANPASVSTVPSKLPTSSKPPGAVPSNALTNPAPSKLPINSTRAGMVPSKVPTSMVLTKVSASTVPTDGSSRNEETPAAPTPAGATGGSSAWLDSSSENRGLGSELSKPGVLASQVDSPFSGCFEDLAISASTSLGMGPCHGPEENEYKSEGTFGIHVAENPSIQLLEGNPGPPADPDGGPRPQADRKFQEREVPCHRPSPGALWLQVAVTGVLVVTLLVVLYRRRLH
Where no end group is shown, it is not given here.

polymer.sequence | Kd
SLVLAAARW [MQP-37A6] | ~750 µM
